# tested_on: UniProtKB P08173
# Sequence (whole entry): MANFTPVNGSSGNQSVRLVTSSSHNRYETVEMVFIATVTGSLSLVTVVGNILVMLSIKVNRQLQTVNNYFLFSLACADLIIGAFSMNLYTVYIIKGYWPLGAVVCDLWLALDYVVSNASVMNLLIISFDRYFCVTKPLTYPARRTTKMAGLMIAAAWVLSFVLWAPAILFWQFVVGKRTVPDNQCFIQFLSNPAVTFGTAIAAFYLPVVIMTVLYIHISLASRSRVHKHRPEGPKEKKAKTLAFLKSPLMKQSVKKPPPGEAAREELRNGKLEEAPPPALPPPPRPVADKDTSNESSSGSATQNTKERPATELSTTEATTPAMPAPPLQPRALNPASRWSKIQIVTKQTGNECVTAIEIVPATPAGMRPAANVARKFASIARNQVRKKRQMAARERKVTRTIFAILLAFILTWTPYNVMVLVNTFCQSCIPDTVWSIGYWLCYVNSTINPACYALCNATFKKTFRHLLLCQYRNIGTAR
# experiment_description: Displacement of 3[H]-NMS from human M4 mAChR expressed in Flp-In-CHO cells assessed as binding constant incubated for 6 hrs by microbeta2 plate reader assay
# Assay type: cell-based
# experimental_context: filed as positive allosteric modulator
attribute_measured: pKb

Cc1ccc(-c2cnn(CC3CC3)c2)c(-c2ccc3c(c2)C(=O)N(C)C3)n1; 5.84
Cc1ccc(-c2cnn(CC3CCCC3)c2)c(-c2ccccc2)n1; 4.68
Cc1ccc(-c2cnn(CC3CCCC3)c2)c(-c2ccc3c(c2)C(=O)N(C)C3)n1; 6.22
CN1Cc2ccc(-c3nccnc3-c3cnn(CC4CCCC4)c3)cc2C1=O; 4.55
Cc1ccc(-c2cnn(CC3CCCC3)c2)c(-c2ccc(F)c(F)c2)n1; 4.53
